system: UACC-257 melanoma; test: NCI-60 one-dose screen, 48 h (100 = growth as untreated, 0 = no growth, -100 = all killed); settings: 10 µM
This is part of a sample that, as a whole, favours compounds with a hit. Of some 83,000 tested, about 20% had one in any assay. Activity calls are given as the source filed them. How the source made its calls: active means growth percent below 10; inactive means the rest.
Let's look at some compounds and their measured growth.

# compound, experimentalTarget, result
data = [
    ("COc1ccc2c(c1)N(CCO)C1=C(C(=O)OC1)C2c1cc(OC)c(OC)c(OC)c1 (stereo not drawn)", "UACC-257 melanoma", "47.4% (inactive)"),
]

--- query ---
Data request: What does the record list as growth for `COc1cc(-c2cc(/C=C/C(=O)c3ccc(Cl)c(Cl)c3)[nH]n2)cc(OC)c1OC` ?
Data returned: 89.7% (inactive)

Where these numbers come from: PubChem BioAssay (NCI)
